These data points were gathered from ChEMBL document CHEMBL5104195.

experiment: in vitro
condition_set: mouse, liver microsomes
reported_endpoint: CLint scaled at 1 h, 1 µM (mL/min/kg)
Answer format: numeric, mL/min/kg implied, no suffix.

In: Write down CLint scaled at 1 h, 1 µM measured for item `Cc1nc(N[C@H](C)c2cccc(C(F)F)c2F)c2cc3c(cc2n1)OCC[C@H]1CN(CC(F)(F)F)CCN31`
Out: 436

---

assayed_system: UniProtKB P10632
Sequence (P10632 whole entry): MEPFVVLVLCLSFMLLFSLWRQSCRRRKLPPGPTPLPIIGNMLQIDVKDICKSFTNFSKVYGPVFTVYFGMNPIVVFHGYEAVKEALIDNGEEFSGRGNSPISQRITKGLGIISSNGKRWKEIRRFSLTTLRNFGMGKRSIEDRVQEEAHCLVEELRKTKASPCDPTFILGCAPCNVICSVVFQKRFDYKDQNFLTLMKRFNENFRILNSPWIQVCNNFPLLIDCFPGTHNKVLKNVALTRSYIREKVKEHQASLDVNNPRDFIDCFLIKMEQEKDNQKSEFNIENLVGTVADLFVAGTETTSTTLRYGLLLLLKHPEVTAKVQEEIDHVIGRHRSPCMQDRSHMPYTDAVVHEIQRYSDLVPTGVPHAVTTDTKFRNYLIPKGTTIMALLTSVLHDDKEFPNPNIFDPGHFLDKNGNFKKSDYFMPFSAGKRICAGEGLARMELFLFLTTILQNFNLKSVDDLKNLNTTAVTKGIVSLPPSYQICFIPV
experiment: Inhibition of CYP2C8 in human liver microsomes at 10 uM using amodiaquine as substrate preincubated for 10 mins followed by NADPH addition by LC/MS analysis
reported_endpoint: pIC50
Give only the number. pIC50 is defined as minus log10 of concentration in molar units.

In: Specify pIC50 for `Cc1nc(N[C@H](C)c2cccc(C(F)F)c2F)c2cc3c(cc2n1)OCC[C@H]1CN(CC(F)(F)F)CCN31` and stop.
Out: 4.34
